Cited source for all entries: the supplement of paper PMC10567573

B1: CLCN6 (parent)
chain: ILRSQLVTLLVRGVCYSESQSSAS

# Variants of: B1
# assay.comment: protein stability index of a GFP-peptide fusion (GPS, HEK-293T) (PSI 1-6); higher = more stable;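 note: lentivirally expressed fusions sorted by FACS into six bins by GFP to DsRed ratio, PSI derived from sequencing read proportions per bin multiplied by bin number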
# test.parameters: c terminus: a fixed tail appended
assay.readout: protein stability index
Answers are plain numbers.

# sequence.input, protein stability index
rows = [
    ("ILRSQLVTLLVDGVCYSESQSSAS [R12D]", 2),
    ("ILRSQLVTLLVRGVCYSESQSAAS [S22A]", 1.76),
    ("ILRSQLVTLLPRGVCYSESQSSAS [V11P]", 2.1),
]

Please go through the list and note protein stability index for each variant.
1. ILRSQSVTLLVRGVCYSESQSSAS [L6S]
2. ILRSQLVTLLVRGVCYSISQSSAS [E18I]
3. ILRSQLVTLLLRGVCYSESQSSAS [V11L]
4. ILRSQLVTLPVRGVCYSESQSSAS [L10P]

*A*
1.42
3.81
4.2
2.52

Please look at the items below and tell me protein stability index for each one, in order.
1. ILRSQLVTLLVRGVCYLESQSSAS [S17L]
2. ILRSQLVTLLVRGVCCSESQSSAS [Y16C]
3. ILRSQLVTLEVRGVCYSESQSSAS [L10E]
4. ILRSQIVTLLVRGVCYSESQSSAS [L6I]
5. ILRSQLVTLLVRGVCISESQSSAS [Y16I]
6. ILRSQLVTMLVRGVCYSESQSSAS [L9M]

*A*
[4.34, 2.31, 2.53, 2.86, 2.94, 2.5]

# batch: return protein stability index for each of the 4 variants below
1. ILQSQLVTLLVRGVCYSESQSSAS [R3Q]
2. ILRSQLVTLLVRGVCYSNSQSSAS [E18N]
3. ILRSQLVTRLVRGVCYSESQSSAS [L9R]
4. KLRSQLVTLLVRGVCYSESQSSAS [I1K]

*A*
[3.3, 3.67, 1.6, 3.63]
